Hello, the source for this data is the supplement of paper PMC10567573, in case you need it.

B1: MCOLN1 (parent)
chain: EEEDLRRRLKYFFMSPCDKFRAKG

- Variants of: B1
- testName: protein stability index of a GFP-peptide fusion (GPS, HEK-293T) (PSI 1-6); higher = more stable;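 further: lentivirally expressed fusions sorted by FACS into six bins by GFP to DsRed ratio, PSI derived from sequencing read proportions per bin multiplied by bin number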
- assaySetup: c terminus: a fixed tail appended
protein stability index below 3 gives F; protein stability index at or above it gives T.

>  <variantKey>
E1C

>  <categoryLabel>
T

$$$$
>  <variantKey>
P16H

>  <categoryLabel>
F

$$$$
>  <variantKey>
R21C

>  <categoryLabel>
F

$$$$
>  <variantKey>
E2I

>  <categoryLabel>
F

$$$$
>  <variantKey>
M14T

>  <categoryLabel>
F

$$$$
>  <variantKey>
C17G

>  <categoryLabel>
F

$$$$
>  <variantKey>
K23F

>  <categoryLabel>
F

$$$$
>  <variantKey>
K23P

>  <categoryLabel>
F

$$$$
>  <variantKey>
F13Y

>  <categoryLabel>
T

$$$$
>  <variantKey>
S15T

>  <categoryLabel>
T

$$$$
>  <variantKey>
E2Q

>  <categoryLabel>
F

$$$$
>  <variantKey>
K10Y

>  <categoryLabel>
F

$$$$
>  <variantKey>
M14L

>  <categoryLabel>
F

$$$$
>  <variantKey>
F20P

>  <categoryLabel>
T

$$$$
>  <variantKey>
K19L

>  <categoryLabel>
F

$$$$
>  <variantKey>
L5N

>  <categoryLabel>
T

$$$$
>  <variantKey>
R6P

>  <categoryLabel>
F

$$$$
>  <variantKey>
F20W

>  <categoryLabel>
F

$$$$
>  <variantKey>
Y11L

>  <categoryLabel>
F

$$$$
>  <variantKey>
R6T

>  <categoryLabel>
F

$$$$
>  <variantKey>
C17N

>  <categoryLabel>
F

$$$$
>  <variantKey>
R7N

>  <categoryLabel>
F

$$$$
>  <variantKey>
L9I

>  <categoryLabel>
F

$$$$
>  <variantKey>
C17E

>  <categoryLabel>
T

$$$$
>  <variantKey>
R7S

>  <categoryLabel>
F

$$$$
